Consider the following IC50 data for Rho-associated protein kinase 1 (Homo sapiens), collected from several reports.

Chemical Structure: COCn1c(C(=O)N2CC(F)(F)C2)cc2ccc(-c3ncnc(Nc4ccc5c(=O)[nH]ccc5c4)n3)cc21
IC50: > 10000 nM
//
Chemical Structure: COc1cc(C(=O)NCc2ccccc2O)ccc1-c1cn[nH]c1
IC50: 9.2 nM
//
Chemical Structure: O=S(=O)(c1cccc2cncc(Br)c12)N1CC[C@H](NCc2ccccc2)C1
IC50: < 1000 nM
//
Chemical Structure: Cc1cncc2cccc(S(=O)(=O)N3CCC[C@H](N)C3)c12
IC50: < 1000 nM
//
Chemical Structure: Cc1c(Nc2ccnc(-c3ccc4cc(C(=O)Nc5ccnnc5)[nH]c4c3)n2)ccc2[nH]ncc12
IC50: > 10000 nM
//
Chemical Structure: CCNC[C@@H](NC(=O)c1ccc(-c2cn[nH]c2)c(OC)c1)c1c(F)cccc1F
IC50: 2.26 nM
//
Chemical Structure: Cc1cncc2cccc(S(=O)(=O)N3CC[C@H](N)C3)c12
IC50: < 1000 nM
//
Chemical Structure: O=C(NCc1ccccc1)Nc1ccc(-c2ccncc2)cc1
IC50: 342 nM

###

What follows is literature data on IC50 for Rho-associated protein kinase 1 (Homo sapiens).

Molecule: CC(O)c1cc(C(=O)NCc2c(F)cccc2Cl)ccc1-c1cn[nH]c1 (stereo not shown)
Unit Label: µM
Bound Operator: =
IC50: 0.275
--
Molecule: CC1(C#N)CN(C(=O)c2cc3ccc(-c4nccc(Nc5ccc(-c6cn[nH]c6)cc5)n4)cc3[nH]2)C1
Unit Label: µM
Bound Operator: =
IC50: 4.53
--
Molecule: CNC(=O)c1cc2ccc(-c3nc(Nc4ccc(-c5cn[nH]c5)cc4)c4sccc4n3)cc2[nH]1
Unit Label: µM
Bound Operator: >
IC50: 10
--
Molecule: COc1cc(F)cc(CNC(=O)c2ncc3cc(-c4cn[nH]c4)ccn23)c1
Unit Label: µM
Bound Operator: ≤
IC50: 0.05
--
Molecule: O=C(c1ccc2c(cnn2-c2nccc(Nc3ccc(-c4cn[nH]c4)cc3)n2)c1)N1CC(F)(F)C1
Unit Label: µM
Bound Operator: >
IC50: 4.5
--
Molecule: CNC(=O)c1cc2ccc(-c3nccc(Nc4ccc(-c5cn[nH]c5)cc4)n3)cc2[nH]1
Unit Label: µM
Bound Operator: =
IC50: 2.87
--
Molecule: O=C(N1Cc2ccc(-c3nccc(Nc4ccc(-c5cn[nH]c5)cc4)n3)cc2C1)N1CC(F)(F)C1
Unit Label: µM
Bound Operator: >
IC50: 10
--
Molecule: CNC(=O)c1cccc(CNC(=O)c2ccc(-c3cn[nH]c3)c(OC)c2)c1
Unit Label: µM
Bound Operator: =
IC50: 0.00305
--
Molecule: Nc1nccc(-c2ccc3c(c2)CCN3C(=O)[C@@H](N)Cc2ccccc2)n1
Unit Label: µM
Bound Operator: =
IC50: 0.086
--
Molecule: O=C(NC1CCCN(c2ccncc2)C1)c1cc2ccc(-c3nccc(Nc4ccc5[nH]ncc5c4)n3)cc2[nH]1 (stereo not shown)
Unit Label: µM
Bound Operator: =
IC50: 0.089
--
Molecule: COc1cccc(C(CN2CCCC2)NC(=O)c2cccc(-c3ccc4[nH]nc(C)c4c3)c2)c1 (stereo not shown)
Unit Label: µM
Bound Operator: =
IC50: 0.29
--
Molecule: COc1cccc(C(CN2CCNCC2)NC(=O)c2cccc(-c3ccc4[nH]nc(C)c4c3)c2)c1 (stereo not shown)
Unit Label: µM
Bound Operator: =
IC50: 2.3
--
Molecule: COc1cccc(C(CO)NC(=O)c2ccc(F)c(-c3ccc4[nH]ncc4c3)c2)c1 (stereo not shown)
Unit Label: µM
Bound Operator: =
IC50: 0.079

###

pIC50 for Rho-associated protein kinase 1 (Homo sapiens) - collated from the literature.
pIC50: −log10 of the molar value.
Measured Quantity: pIC50

Molecule: O=C(c1cc2ccc(-c3nccc(Nc4ccc(-c5cn[nH]c5)cc4)n3)cc2[nH]1)N1CC(O)C1
Bound Operator: <
Recorded Value: 5.00
//
Molecule: O=C(c1cc2ccc(-c3nccc(Nc4ccc(-c5cn[nH]c5)cc4)n3)cc2[nH]1)N1CCC(F)(F)C1
Bound Operator: <
Recorded Value: 5.00
//
Molecule: O=C(c1cc2ccc(-c3nccc(Nc4ccc(-c5cn[nH]c5)cc4)n3)cc2[nH]1)N1CC(F)(F)C1
Bound Operator: <
Recorded Value: 5.00
//
Molecule: COc1cc(F)cc(CNC(=O)N2CCc3c2ccc(-c2cn[nH]c2)c3F)c1
Bound Operator: ≥
Recorded Value: 7.30
//
Molecule: COc1cccc([C@@H](C)NC(=O)c2ccc(-c3cn[nH]c3)cc2OCCN(C)C)c1
Bound Operator: =
Recorded Value: 6.55
//
Molecule: COc1ccc2c(c1)CN(c1nccc(Nc3ccc(-c4ccncc4)cc3)n1)C2
Bound Operator: <
Recorded Value: 5.00
//
Molecule: COc1cccc([C@@H](C)NC(=O)c2ccc(-c3c[nH]nc3C#N)cc2OC)c1
Bound Operator: =
Recorded Value: 7.51
//
Molecule: O=C(NCc1ccccc1)N1CCc2cc(-c3cn[nH]c3)ccc21
Bound Operator: ≥
Recorded Value: 7.30
//
Molecule: CN1CCC(N2CCCC(NC(=O)c3cc4ccc(-c5nccc(Nc6ccc7[nH]ncc7c6)n5)cc4[nH]3)C2)CC1 (stereo not shown)
Bound Operator: =
Recorded Value: 6.56
//
Molecule: Cn1c(C(=O)N2CC(F)(F)C2)cc2c1CN(c1nc(Nc3ccc(-c4cn[nH]c4)cc3)c3cccn3n1)CC2
Bound Operator: <
Recorded Value: 5.35
//
Molecule: O=C(NC(CO)c1cccc(F)c1F)c1cccc(-c2ccc3[nH]ncc3c2)c1 (stereo not shown)
Bound Operator: =
Recorded Value: 6.13
//
Molecule: COc1cc(F)cc(CNC(=O)N2CCc3cc(-c4cn[nH]c4)c(Cl)cc32)c1
Bound Operator: ≥
Recorded Value: 7.30
//
Molecule: O=C(Nc1cccc(-c2noc(Nc3ccc4[nH]ncc4c3)n2)c1)c1cccnc1
Bound Operator: >
Recorded Value: 6.52
//
Molecule: COc1cccc(CNC(=O)c2cc(C3NC(=O)NC(C)=C3C(=O)Nc3ccc4[nH]ncc4c3)ccc2F)c1 (stereo not shown)
Bound Operator: =
Recorded Value: 7.01
//
Molecule: COc1cc(C(=O)NC(C)c2c(F)cccc2Cl)ccc1-c1cn[nH]c1 (stereo not shown)
Bound Operator: =
Recorded Value: 7.78
//
Molecule: COc1cc(C(=O)NC(CCN(C)C)c2ccccc2)ccc1-c1cn[nH]c1 (stereo not shown)
Bound Operator: =
Recorded Value: 7.03

###

We begin with pIC50 values for Rho-associated protein kinase 1 (Homo sapiens, UniProt Q13464), as collected from the published literature.
pIC50: −log10 of the molar value.

Compound: CC(OC(=O)N1CCc2sc(-c3nccc(Nc4ccc5c(c4)CCNC5=O)n3)cc2C1)C(F)(F)F (centres unmarked)
Bound Operator: <
pIC50: 5.00
//
Compound: Cn1c(C(=O)N2C[C@@H](F)[C@@H](F)C2)cc2ccc(-c3nccc(Nc4ccc(-c5cn[nH]c5)cc4)n3)cc21
Bound Operator: =
pIC50: 5.56
//
Compound: O=C(Cc1ccc(-c2n[nH]c(=O)c3ccccc23)cc1)N1Cc2ccc(F)cc2C1
Bound Operator: =
pIC50: 6.17
//
Compound: O=C(Nc1cn[nH]c1)c1cc2ccc(-c3nccc(Nc4ccc5[nH]ncc5c4)n3)cc2[nH]1
Bound Operator: =
pIC50: 5.96
//
Compound: CN1C(=O)[C@@H](Cc2ccc(-c3ccncc3)cc2)NC(=O)c2c(Cl)cccc21
Bound Operator: <
pIC50: 4.52
//
Compound: COc1cccc(C(CNC(C)C)NC(=O)c2cccc(-c3ccc4[nH]nc(C)c4c3)c2)c1 (centres unmarked)
Bound Operator: =
pIC50: 7.12
//
Compound: O=C1NCc2cc(Nc3nc(-c4ccc5c(c4)CN(C(=O)OC4CC(F)(F)C4)C5)ncc3F)ccc21
Bound Operator: <
pIC50: 5.00
//
Compound: COc1cc(F)cc(CNC(=O)N2CCc3ccc(-c4cn[nH]c4)cc3C2)c1
Bound Operator: ≥
pIC50: 7.30

###

pIC50: −log10 of the molar value.
Study the reported pIC50 values for Rho-associated protein kinase 1 (Homo sapiens, UniProt Q13464) given below; they originate from different publications.
Rule: pIC50 under 6 gives F, otherwise T.

Chemical Structure: Cn1c(C(=O)N2CC(F)(F)C2)cc2c1CN(c1nc(CC#N)nc(Nc3ccc(-c4cn[nH]c4)cc3)n1)CC2
System Under Test: Rho-associated protein kinase 1 (Homo sapiens, UniProt Q13464)
Class Assignment: F
--
Chemical Structure: COc1cc(C(=O)NCc2ccc(Cl)c(C(F)(F)F)c2)ccc1-c1cn[nH]c1
System Under Test: Rho-associated protein kinase 1 (Homo sapiens, UniProt Q13464)
Class Assignment: T
--
Chemical Structure: Cc1[nH]ncc1-c1ccc2cc(C(=O)NCc3c(Cl)cccc3C3(O)CC3)[nH]c2n1
System Under Test: Rho-associated protein kinase 1 (Homo sapiens, UniProt Q13464)
Class Assignment: T
--
Chemical Structure: CC(C)NC(=O)c1cc2ccc(-c3nc(Nc4ccc5[nH]ncc5c4)c4occc4n3)cc2s1
System Under Test: Rho-associated protein kinase 1 (Homo sapiens, UniProt Q13464)
Class Assignment: F
--
Chemical Structure: O=C(Nc1cccc(-c2nc(Nc3ccc4[nH]ncc4c3)no2)c1)c1cn[nH]c1
System Under Test: Rho-associated protein kinase 1 (Homo sapiens, UniProt Q13464)
Class Assignment: T
--
Chemical Structure: O=C1NCc2cc(Nc3nc(-c4ccc5c(c4)CN(C(=O)C4CC(F)(F)C4)C5)ncc3F)ccc21
System Under Test: Rho-associated protein kinase 1 (Homo sapiens, UniProt Q13464)
Class Assignment: F
--
Chemical Structure: Cn1c(C(=O)N2CC(F)(F)C2)cc2ccc(-c3nc(Nc4ccc(-c5cn[nH]c5)cc4)c4sccc4n3)cc21
System Under Test: Rho-associated protein kinase 1 (Homo sapiens, UniProt Q13464)
Class Assignment: F
--
Chemical Structure: O=C(Nc1ccnnc1)c1cc2ccc(-c3ncnc(Nc4ccc5[nH]ncc5c4)n3)cc2[nH]1
System Under Test: Rho-associated protein kinase 1 (Homo sapiens, UniProt Q13464)
Class Assignment: F
--
Chemical Structure: COc1cc(C(=O)N[C@@H](Cc2ccc(F)cc2)C(=O)N(C)C)ccc1-c1cn[nH]c1
System Under Test: Rho-associated protein kinase 1 (Homo sapiens, UniProt Q13464)
Class Assignment: F
--
Chemical Structure: COc1ccc2c(c1)CN(c1nc3c(c(Nc4ccc5[nH]ncc5c4)n1)CCNC3)C2
System Under Test: Rho-associated protein kinase 1 (Homo sapiens, UniProt Q13464)
Class Assignment: F
--
Chemical Structure: Cn1ccnc1C(=O)Nc1ccc(-c2n[nH]c(=O)c3ccccc23)cc1
System Under Test: Rho-associated protein kinase 1 (Homo sapiens, UniProt Q13464)
Class Assignment: T
--
Chemical Structure: CCCC(=O)Nc1cccc(-c2nc(Nc3ccc4[nH]ncc4c3)c3cc(OCCN(C)C)ccc3n2)c1
System Under Test: Rho-associated protein kinase 1 (Homo sapiens, UniProt Q13464)
Class Assignment: F
--
Chemical Structure: O=C(NCc1cc(F)cc(F)c1)N1CCc2cc(-c3cn[nH]c3F)c(F)cc21
System Under Test: Rho-associated protein kinase 1 (Homo sapiens, UniProt Q13464)
Class Assignment: T
